All figures here come from ChEMBL document CHEMBL1157664.

Target: Inhibitor of nuclear factor kappa-B kinase subunit beta (Homo sapiens, UniProt O14920)
Sequence (O14920 whole entry): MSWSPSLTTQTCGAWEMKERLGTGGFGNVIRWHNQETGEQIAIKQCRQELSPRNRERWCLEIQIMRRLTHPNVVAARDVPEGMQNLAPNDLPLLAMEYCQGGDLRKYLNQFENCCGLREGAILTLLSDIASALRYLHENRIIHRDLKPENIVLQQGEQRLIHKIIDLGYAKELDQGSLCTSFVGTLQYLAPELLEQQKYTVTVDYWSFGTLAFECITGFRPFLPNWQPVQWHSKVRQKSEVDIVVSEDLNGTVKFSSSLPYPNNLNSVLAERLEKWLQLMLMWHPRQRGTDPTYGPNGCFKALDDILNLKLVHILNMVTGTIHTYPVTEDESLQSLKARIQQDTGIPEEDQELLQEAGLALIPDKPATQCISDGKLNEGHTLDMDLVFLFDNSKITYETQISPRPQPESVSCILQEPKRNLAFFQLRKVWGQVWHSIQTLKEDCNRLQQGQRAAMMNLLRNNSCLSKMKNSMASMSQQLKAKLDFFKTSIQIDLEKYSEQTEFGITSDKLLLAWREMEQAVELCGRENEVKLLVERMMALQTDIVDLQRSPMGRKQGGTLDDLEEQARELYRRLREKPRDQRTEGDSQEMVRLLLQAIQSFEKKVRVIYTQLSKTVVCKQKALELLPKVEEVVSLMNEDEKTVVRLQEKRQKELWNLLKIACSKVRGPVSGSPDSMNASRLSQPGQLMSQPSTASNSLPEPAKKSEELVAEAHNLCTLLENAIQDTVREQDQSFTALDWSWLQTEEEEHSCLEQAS
Assay: Inhibition of human recombinant IKK2-mediated transfer of [gamma33P]ATP to biotinylated IkappaBalpha after 30 mins by scintillation counting
Provide the recorded pIC50 for the entries that follow.
Worth noting: pIC50 values are minus log10 of concentrations stated in mol/L.

get_value(item= NC(=O)c1nn(-c2ccc3c(c2)OCO3)c2c1CCc1ccc(NC(=O)c3cc(N4CCNCC4)ncc3Cl)cc1-2 , readout=pIC50) returns 7.40

Measured pIC50, CN1CCN(c2ncccc2C(=O)Nc2ccc3c(c2)-c2c(c(C(N)=O)nn2-c2ccc(F)cc2)CC3)CC1 : 4.79

Note to self: pIC50 recorded for CN1CCN(c2ccc(Cl)c(C(=O)Nc3ccc4c(c3)-c3c(c(C(N)=O)nn3-c3ccc5c(c3)OCO5)CC4)n2)CC1 was 6.53

----------
Target: Inhibitor of nuclear factor kappa-B kinase subunit beta (Homo sapiens, UniProt O14920)
Test: Inhibition of human recombinant IKK2-mediated transfer of [gamma33P]ATP to biotinylated IkappaBalpha after 30 mins by scintillation counting
Just a reminder that ties go to Not met: only IC50 strictly below 50 nM counts as Met.

Does COCCN1CCN(c2cc(C(=O)Nc3ccc4c(c3)-c3c(c(C(N)=O)nn3-c3ccc(F)cc3)CC4)c(Cl)cn2)CC1 have IC50 strictly under 50 nM? Not met

Is IC50 strictly under 50 nM for the entry CN1CCCN(c2cc(C(=O)Nc3ccc4c(c3)-c3c(c(C(N)=O)nn3-c3ccc(F)cc3)CC4)c(Cl)cn2)CC1 ? Met

Consider the compound CN1CCN(c2ncccc2C(=O)Nc2ccc3c(c2)-c2c(c(C(N)=O)nn2-c2ccc4c(c2)OCO4)CC3)CC1 . Is its IC50 strictly less than 50 nM? Not met

Hello, is IC50 of the following compound strictly smaller than 50 nM? CNc1ncccc1C(=O)Nc1ccc2c(c1)-c1c(c(C(N)=O)nn1-c1ccc3c(c1)OCO3)CC2 Not met

API: query returns whether the compound falls strictly under 50 nM in IC50. Query: NC(=O)c1nn(-c2ccc(F)cc2)c2c1CCc1ccc(NC(=O)c3cc(N4CCOCC4)ncc3Cl)cc1-2 Not met

Does NC(=O)c1nn(-c2ccc(F)cc2)c2c1CCc1ccc(NC(=O)c3cccnc3N3CCOCC3)cc1-2 have IC50 strictly under 50 nM? Not met

Quick check: does NC(=O)c1nn(-c2ccc3c(c2)OCO3)c2c1CCc1ccc(NC(=O)c3cccnc3Cl)cc1-2 have IC50 under 50 nM? Met

Dear reviewer, please state whether NC(=O)c1nn(-c2ccc3c(c2)OCO3)c2c1CCc1ccc(NC(=O)c3nc(N4CCOCC4)ccc3Cl)cc1-2 has IC50 strictly beneath 50 nM. Not met

Record CC(C)N1CCN(c2cc(C(=O)Nc3ccc4c(c3)-c3c(c(C(N)=O)nn3-c3ccc(F)cc3)CC4)c(Cl)cn2)CC1 : is its IC50 strictly below 50 nM? Not met

Please let me know if C[C@@H]1CN(c2cc(C(=O)Nc3ccc4c(c3)-c3c(c(C(N)=O)nn3-c3ccc(F)cc3)CC4)c(Cl)cn2)CCN1C shows IC50 below 50 nM. Met

Say whether its IC50 is strictly beneath 50 nM. Entry: CNc1ccc(Cl)c(C(=O)Nc2ccc3c(c2)-c2c(c(C(N)=O)nn2-c2ccc4c(c2)OCO4)CC3)n1 Not met

Input CN(C)CCN(C)c1cc(C(=O)Nc2ccc3c(c2)-c2c(c(C(N)=O)nn2-c2ccc(F)cc2)CC3)c(Cl)cn1 ; condition: IC50 strictly below 50 nM. Does it hold? Met

Please determine if NC(=O)c1nn(-c2ccc(F)cc2)c2c1CCc1ccc(NC(=O)c3ccnc(N4CCOCC4)c3)cc1-2 is below 50 nM in terms of IC50. Not met

Does the reported IC50 of the following compound sit strictly below 50 nM? C[C@@H]1CN(c2cc(C(=O)Nc3ccc4c(c3)-c3c(c(C(N)=O)nn3-c3ccc(F)cc3)CC4)c(Cl)cn2)CCN1 Not met

Does CN1CCN(c2cc(C(=O)Nc3ccc4c(c3)-c3c(c(C(N)=O)nn3-c3ccc(F)cc3)CC4)c(Cl)cn2)CC1 have IC50 strictly under 50 nM? Met

# TODO verify IC50 < 50 nM strictly for this compound: NC(=O)c1nn(-c2ccc3c(c2)OCO3)c2c1CCc1ccc(NC(=O)c3cccnc3N)cc1-2 Not met
